Attribution: PubChem BioAssay (NCI)

- Tested on: SK-MEL-28 melanoma
- test_summary: NCI tumour cell line growth inhibition, 48 h
result_type: GI50

Some compounds with recorded GI50:
# compound, tested_on, GI50
rows = [
    ("Clc1ccc(C(Cn2ccnc2)OCc2ccsc2Cl)c(Cl)c1 (stereo unspecified)", "SK-MEL-28 melanoma", "4.18 µM"),
    ("O=C(c1ccco1)c1nc2ccc(Cl)cc2[n+]([O-])c1C(F)(F)F", "SK-MEL-28 melanoma", "> 100 µM"),
    ("O=C(Nc1ncc(Cc2ccccc2)s1)c1sc2ccccc2c1Cl", "SK-MEL-28 melanoma", "2.18 µM"),
    ("Cc1ccc(S(=O)(=O)c2ccccc2)cc1", "SK-MEL-28 melanoma", "5.65 µM"),
    ("COc1ccc2c(c1)/C(=N/OC(C)=O)c1c-2c(Nc2cccc(/C(C)=N/OC(C)=O)c2)nc2ccccc12", "SK-MEL-28 melanoma", "> 100 µM"),
    ("Oc1c(Br)cc(Br)c2ccc(Cn3cc(-c4ccc(C(F)(F)F)cc4)nn3)nc12", "SK-MEL-28 melanoma", "1.7 µM"),
    ("CCCCC(CCCCCC(CCCC)C1NC(C)Cc2cc(OC)c(OC)cc21)C1NC(C)Cc2cc(OC)c(OC)cc21 (stereo unspecified)", "SK-MEL-28 melanoma", "1.6 µM"),
    ("NC(N)=NN=C(c1ccccc1)c1ccccc1", "SK-MEL-28 melanoma", "5.82 µM"),
]

Quick note, GI50 for `CSc1nc(-c2cc3ccccc3o2)cc(-c2ccc(Cl)cc2)c1C#N` landed at > 100 µM

Item: `COc1ccc2cc(C#Cc3ccc(-n4c(/C=C/c5cc(OC)c(OC)c(OC)c5)nc5ccccc5c4=O)c(C)c3)ccc2c1` | GI50: > 100 µM

Field GI50 (entry `O=C(Cc1n[nH]c(=O)c2ccccc12)OCc1c(Cl)cccc1Cl` ) reads > 100 µM
